Hey, just so you know, these numbers are from paper PMC7915527.

System: 5AR in ZFL cells
test protocol: Cell-based 5AR activity/inhibition assay in zebrafish liver cells (ZFL)
assay conditions: testosterone at KM, 3 h, 95% CI in parentheses, read-out: IC50 Value
Method: For the calculation of KM for optimized assay conditions, ZFL and RTG-2 cells were treated with testosterone in increments of 0 to 50 µM. The DHT levels were measured (Figure 5a). Based on the calculated KM values, inhibition assays were conducted (Figure 5b). […] The extracts were analyzed for DHT via ultra-performance LC-MS/MS (Agilent 1200/6460C QQQMSD coupled Jet Stream technology electrospray ion (ESI) source; Agilent Technologies, Santa Clara, CA, USA).
measured attribute: IC50 (nM)
Answer with a number only, understood to be in nM.

Exercise: Requested field: IC50. Item: CC(C)(C)NC(=O)[C@H]1CC[C@H]2[C@@H]3CC[C@H]4NC(=O)C=C[C@]4(C)[C@H]3CC[C@]12C [Finasteride, finasteride]
Solution: 142

----------
measurement target: SRD5A1 (Homo sapiens, UniProt P18405)
Sequence (P18405 whole entry): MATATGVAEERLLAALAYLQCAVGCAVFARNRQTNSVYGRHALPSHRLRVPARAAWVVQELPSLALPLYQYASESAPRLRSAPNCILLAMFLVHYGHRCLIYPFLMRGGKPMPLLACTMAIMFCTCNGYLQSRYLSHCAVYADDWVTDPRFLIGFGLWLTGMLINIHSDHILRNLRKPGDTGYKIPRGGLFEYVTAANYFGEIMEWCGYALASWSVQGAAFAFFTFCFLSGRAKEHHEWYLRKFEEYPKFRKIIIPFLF
test protocol: Cell-based 5AR activity/inhibition assay in HEK-293 cells transiently overexpressing SRD5A1
assay conditions: IC50 Value, SRD5A1-overexpressing HEK-293 cells; testosterone at KM, 3 h; 95% CI in parentheses
measured attribute: pIC50
pIC50 is a log-scale quantity: -log10 of the concentration expressed in molar.

Exercise: Requested field: pIC50. Item: C[C@]12C=CC(=O)N[C@@H]1CC[C@@H]1[C@@H]2CC[C@]2(C)[C@@H](C(=O)Nc3cc(C(F)(F)F)ccc3C(F)(F)F)CC[C@@H]12 [Dutasteride, dutasteride]
Solution: 8.90

----------
Tested on: 5AR in RTG-2 cells
test protocol: Cell-based 5AR activity/inhibition assay in rainbow trout gonad cells (RTG-2)
assay conditions: testosterone at KM, 3 h, 95% CI in parentheses, listed as finasteride, read-out: IC50 Value
measured attribute: pIC50
pIC50 is a log-scale quantity: -log10 of the concentration expressed in molar.

Exercise: Requested field: pIC50. Item: CC(C)(C)NC(=O)[C@H]1CC[C@H]2[C@@H]3CC[C@H]4NC(=O)C=C[C@]4(C)[C@H]3CC[C@]12C [Finasteride, finasteride]
Solution: 5.61
